System: HOP-62 NSCLC
measurementProtocol: NCI tumour cell line growth inhibition, 48 h
parameter: TGI (µM)
Express the result in µM but write the number alone.

Task: Complete the entry with TGI for `NC(=N\N=C/c1ccc(O)cc1)/C(N)=N\N=C/c1ccc(O)cc1`
Result: 67.1

Task: Complete the entry with TGI for `C[N+]1=c2c3cccc4cccc(c(=O)n2CC1)c43`
Result: 53.1

Task: Complete the entry with TGI for Oc1c(C(Nc2ccccc2Br)c2ccccc2)ccc2cccnc12 (stereo not given)
Result: 19.7

Others:
Task: Complete the entry with TGI for `COc1cc(-c2nc3ccccc3s2)ccc1OCCCCOc1cc2c(cc1OC)C(=O)N1CCC[C@H]1C=N2`
Result: 3.37

====

The following compounds are listed with their measured TGI values.
Tested on: UACC-257 melanoma
measurementProtocol: NCI tumour cell line growth inhibition, 48 h
Express the result in µM but write the number alone.

Task: Complete the entry with TGI for CC(C)/C=C1\CCC(CN2CCOCC2)C1=O (centres undefined)
Result: 20.1

Others:
Task: Complete the entry with TGI for `Cc1ccc(S(=O)(=O)N2C[C@@H]3CC[C@]4(CO[Si](C)(C)C(C)(C)C)N[C@@H](c5ccccc5)[C@H]2[C@H]34)cc1`
Result: 93.8

Task: Complete the entry with TGI for COC(=O)c1ccccc1C1CN=NC12Cc1c(ccc3c1CCC3)C2=O (centres undefined)
Result: 95.1

Task: Complete the entry with TGI for `CCCCCCCCCCCC1=NC(C)(C)CN1C(C)(C)CO`
Result: 3.28

====

System: OVCAR-3 ovarian
measurementProtocol: NCI tumour cell line growth inhibition, 48 h; in the data active = GI50 below about 0.43 µM; inactive = the rest
Parameter call: string, one of active, inactive

# count of solved cases: 3
Task: Could you kindly confirm the outcome this assay logged for `Cc1ccc2nc3ccccc3c(NCc3ccc(Cl)cc3)c2c1` ?
Result: inactive

Task: Could you kindly confirm the outcome this assay logged for `CN(C)c1ccc(Nc2c3ccccc3nc3ccccc23)cc1` ?
Result: inactive

Task: Could you kindly confirm the outcome this assay logged for `COc1ccccc1/C=C1\COc2ccc(-c3ccccc3)cc2C1=O` ?
Result: inactive

Others:
Task: Could you kindly confirm the outcome this assay logged for `CCCCCCCCCCCC1=NC(C)(C)CN1C(C)(C)CO` ?
Result: inactive

Task: Could you kindly confirm the outcome this assay logged for `Fc1ccc(-c2ncn(C3CCNCC3)c2-c2ccnc(Oc3ccc4c(c3)OCO4)n2)cc1` ?
Result: inactive

Task: Could you kindly confirm the outcome this assay logged for `Cc1ccc(/C=C(\C#N)c2cc3ccccc3n2C)cc1` ?
Result: active

Task: Could you kindly confirm the outcome this assay logged for `COc1cc(-c2nc3ccccc3s2)ccc1OCCCCOc1cc2c(cc1OC)C(=O)N1CCC[C@H]1C=N2` ?
Result: inactive

Task: Could you kindly confirm the outcome this assay logged for `O=c1c2cc(C(F)(F)F)ccc2sc2c(NCCCNCCO)nc3ccccc3c12` ?
Result: inactive

====

Tested on: ACHN renal
measurementProtocol: NCI tumour cell line growth inhibition, 48 h
parameter: TGI

Illustrative cases are given below, each with its answer.
Task: Complete the entry with TGI for `CC(C)N(C(=O)c1cccc(C(=O)N(C(C)C)C(C)C)c1)C(C)C`
Result: > 100 µM

Task: Complete the entry with TGI for `C[C@]12CC[C@H]3[C@@H](CCC4=CC(=O)C=C[C@@]43OC(=O)C(F)(F)F)[C@@H]1CCC2=O`
Result: > 100 µM

Task: Complete the entry with TGI for `O=c1c2cc(C(F)(F)F)ccc2sc2c(NCCCNCCO)nc3ccccc3c12`
Result: 2.86 µM

Task: Complete the entry with TGI for `O=C(/C=C(\O)C(=O)O)/C=C(\O)c1ccccc1`
Result: > 100 µM

Others:
Task: Complete the entry with TGI for `O=S(=O)(O)O`
Result: 1550 µM

Task: Complete the entry with TGI for `COc1ccc(-n2c(=O)c3[nH]c(=S)[nH]c3n(-c3ccc(OC)cc3)c2=S)cc1`
Result: > 100 µM
